Biological target: hCBS (human cystathionine β-synthase) (Homo sapiens, UniProt P35520)
Sequence (P35520 1-551): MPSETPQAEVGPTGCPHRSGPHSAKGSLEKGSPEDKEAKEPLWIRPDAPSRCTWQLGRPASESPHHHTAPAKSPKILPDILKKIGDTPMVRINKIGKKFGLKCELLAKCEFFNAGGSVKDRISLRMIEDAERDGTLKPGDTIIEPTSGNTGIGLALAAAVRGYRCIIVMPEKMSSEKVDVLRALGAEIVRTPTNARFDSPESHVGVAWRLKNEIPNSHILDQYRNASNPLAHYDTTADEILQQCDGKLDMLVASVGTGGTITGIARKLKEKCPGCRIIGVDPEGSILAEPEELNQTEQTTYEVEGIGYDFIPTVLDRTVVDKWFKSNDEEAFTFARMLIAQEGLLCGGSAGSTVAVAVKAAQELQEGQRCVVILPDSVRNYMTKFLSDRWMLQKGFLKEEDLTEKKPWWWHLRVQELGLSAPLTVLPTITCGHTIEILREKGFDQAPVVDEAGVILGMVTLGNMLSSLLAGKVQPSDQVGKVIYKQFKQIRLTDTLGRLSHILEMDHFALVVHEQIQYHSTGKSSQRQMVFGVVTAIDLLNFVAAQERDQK
Test: radioisotope CBS activity assay with L-[U-14C]serine
Reported metric: EC50 (µM)
Numbers only, in µM.

Prompt: For C[S+](CC[C@H](N)C(=O)O)C[C@H]1O[C@@H](n2cnc3c(N)ncnc32)[C@H](O)[C@@H]1O (stereo partly shown) , what is its reported EC50?
Response: 3.7
